B1: BCL2L13 (parent)
chain: QSLDQEILLKVKTEIEEELKSLDK

Variants of: B1
PROCEDURE_DETAILS: protein stability index of a GFP-peptide fusion (GPS, HEK-293T) (PSI 1-6); higher = more stable;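 also: lentivirally expressed fusions sorted by FACS into six bins by GFP to DsRed ratio, PSI derived from sequencing read proportions per bin multiplied by bin number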
CONDITION_CONTEXT: c terminus: a fixed tail appended
MEASUREMENT_TYPE: protein stability index
Could you keep your reply to the number by itself?

Record excerpt, results attached:
                          residues  observed_value
0   QSEDQEILLKVKTEIEEELKSLDK [L3E]            5.63
1  QSLDQEILLKVKTEIEEMLKSLDK [E18M]            1.98
2  QSLDQEILLKVKTEQEEELKSLDK [I15Q]            5.46
3  QSLDQEILLKAKTEIEEELKSLDK [V11A]            5.53

Reported protein stability index, variant QSLDQEIILKVKTEIEEELKSLDK [L8I] : ____
4.14

Reported protein stability index, variant QSLDQEILLKVKTRIEEELKSLDK [E14R] : ____
3.85

Reported protein stability index, variant QSQDQEILLKVKTEIEEELKSLDK [L3Q] : ____
5.41

Reported protein stability index, variant QSLDQEINLKVKTEIEEELKSLDK [L8N] : ____
5.9

Reported protein stability index, variant QSLDQQILLKVKTEIEEELKSLDK [E6Q] : ____
4.56
